compounds and their reported viscosity
# PROCEDURE_DETAILS: xn = mol fraction of the nth substance listed
# CONDITIONS: 313.15 K; 100 kPa; Liquid; Concentric cylinders viscometry; x2 = 0.25
Form entry: value (mPa·s) — number only.

Solved entries (count: 4):
>  <COMPOUND>
CCCCn1cc[n+](C)c1.N#C[S-] [1-butyl-3-methylimidazolium thiocyanate] + CCCC[n+]1ccn(C)c1.O=S(=O)([N-]S(=O)(=O)C(F)(F)F)C(F)(F)F

>  <viscosity (mPa·s)>
34.22

$$$$
>  <COMPOUND>
CCCCn1cc[n+](C)c1.O=S(=O)([O-])C(F)(F)F [1-butyl-3-methylimidazolium trifluoromethanesulfonate] + CCCC[n+]1ccn(C)c1.O=S(=O)([N-]S(=O)(=O)C(F)(F)F)C(F)(F)F

>  <viscosity (mPa·s)>
38.52

$$$$
>  <COMPOUND>
CCCCn1cc[n+](C)c1.COP(=O)([O-])OC [1-butyl-3-methyl-1H-imidazolium dimethylphosphate] + CCCC[n+]1ccn(C)c1.O=S(=O)([N-]S(=O)(=O)C(F)(F)F)C(F)(F)F

>  <viscosity (mPa·s)>
166.25

$$$$
>  <COMPOUND>
CCCCn1cc[n+](C)c1.F[P-](F)(F)(F)(F)F [1-butyl-3-methylimidazolium hexafluorophosphate] + CCCC[n+]1ccn(C)c1.O=S(=O)([N-]S(=O)(=O)C(F)(F)F)C(F)(F)F

>  <viscosity (mPa·s)>
72.18

$$$$

Next up:
Query string: Can you share its viscosity? I mean this compound: CC(=O)[O-].CCCCn1cc[n+](C)c1 [1-butyl-3-methylimidazolium acetate] + CCCC[n+]1ccn(C)c1.O=S(=O)([N-]S(=O)(=O)C(F)(F)F)C(F)(F)F
Result string: 79.57

* * *

# PROCEDURE_DETAILS: xn = mol fraction of the nth substance listed
# CONDITIONS: 348.15 K; 100 kPa; Liquid; Concentric cylinders viscometry; x2 = 0.25
MEASUREMENT_LABEL: viscosity (mPa·s)
Entry rule: numbers only, all in mPa·s.

>  <MOLECULE>
CCCCn1cc[n+](C)c1.N#C[S-] [1-butyl-3-methylimidazolium thiocyanate] + CCCC[n+]1ccn(C)c1.O=S(=O)([N-]S(=O)(=O)C(F)(F)F)C(F)(F)F

>  <RECORDED_MEASUREMENT>
12

$$$$
>  <MOLECULE>
CCCCn1cc[n+](C)c1.O=S(=O)([O-])C(F)(F)F [1-butyl-3-methylimidazolium trifluoromethanesulfonate] + CCCC[n+]1ccn(C)c1.O=S(=O)([N-]S(=O)(=O)C(F)(F)F)C(F)(F)F

>  <RECORDED_MEASUREMENT>
13.43

$$$$
>  <MOLECULE>
CCCCn1cc[n+](C)c1.F[P-](F)(F)(F)(F)F [1-butyl-3-methylimidazolium hexafluorophosphate] + CCCC[n+]1ccn(C)c1.O=S(=O)([N-]S(=O)(=O)C(F)(F)F)C(F)(F)F

>  <RECORDED_MEASUREMENT>
20.99

$$$$

Query string: viscosity lookup needed for CC(=O)[O-].CCCCn1cc[n+](C)c1 [1-butyl-3-methylimidazolium acetate] + CCCC[n+]1ccn(C)c1.O=S(=O)([N-]S(=O)(=O)C(F)(F)F)C(F)(F)F , thanks.
Result string: 19.63

Query string: Entry CCCCn1cc[n+](C)c1.COP(=O)([O-])OC [1-butyl-3-methyl-1H-imidazolium dimethylphosphate] + CCCC[n+]1ccn(C)c1.O=S(=O)([N-]S(=O)(=O)C(F)(F)F)C(F)(F)F please
Result string: 34.9

* * *

# CONDITIONS: 323.15 K; 100 kPa; Liquid; Vibrating tube method
Numbers after ± are expanded uncertainties.
MEASUREMENT_LABEL: mass density

// solved cases for mass density follow
>  <MOLECULE>
CCCCn1cc[n+](C)c1.F[B-](F)(F)F [1-butyl-3-methylimidazolium tetrafluoroborate]

>  <mass density>
1184 ± 0.6 kg/m3

$$$$
>  <MOLECULE>
CC(=O)[O-].CCCCn1cc[n+](C)c1 [1-butyl-3-methylimidazolium acetate]

>  <mass density>
1037.5 ± 1 kg/m3

$$$$
>  <MOLECULE>
CCCCn1cc[n+](C)c1.N#C[S-] [1-butyl-3-methylimidazolium thiocyanate]

>  <mass density>
1055.5 ± 1 kg/m3

$$$$
>  <MOLECULE>
CCCCn1cc[n+](C)c1.COP(=O)([O-])OC [1-butyl-3-methyl-1H-imidazolium dimethylphosphate]

>  <mass density>
1141 ± 1.2 kg/m3

$$$$

Consider now this further molecule.
Query string: Tell me the measured mass density of CCCCn1cc[n+](C)c1.N#CN=C=[N-] [1-butyl-3-methylimidazolium dicyanamide] , please.
Result string: 1044.4 ± 1 kg/m3

* * *

# CONDITIONS: 308.15 K; 100 kPa; Liquid; Concentric cylinders viscometry
Recorded measurements of viscosity, one per entry
Give the value in mPa·s but do not write mPa·s after it.

>  <MOLECULE>
CC(=O)[O-].CCCCn1cc[n+](C)c1 [1-butyl-3-methylimidazolium acetate]

>  <READOUT_UNIT>
mPa·s

>  <viscosity>
150.08

$$$$

Query string: I'd like to know its viscosity. The molecule in question is CCCCn1cc[n+](C)c1.COP(=O)([O-])OC [1-butyl-3-methyl-1H-imidazolium dimethylphosphate]
Result string: 319.33

Query string: Likewise for CCCCn1cc[n+](C)c1.N#CN=C=[N-] [1-butyl-3-methylimidazolium dicyanamide] ?
Result string: 20.98

Query string: Next: CCCCn1cc[n+](C)c1.N#C[S-] [1-butyl-3-methylimidazolium thiocyanate]
Result string: 40.48

Query string: Record: CCCCn1cc[n+](C)c1.F[B-](F)(F)F [1-butyl-3-methylimidazolium tetrafluoroborate]
Result string: 66.52

* * *

# PROCEDURE_DETAILS: xn = mol fraction of the nth substance listed
# CONDITIONS: 313.15 K; 100 kPa; Liquid; Vibrating tube method; x2 = 0.25
MEASUREMENT_LABEL: mass density (kg/m3)
Dear colleague, please return just the value in kg/m3, with no unit written.

Example entries begin here.
>  <COMPOUND>
CC(=O)[O-].CCCCn1cc[n+](C)c1 [1-butyl-3-methylimidazolium acetate] + CCCC[n+]1ccn(C)c1.O=S(=O)([N-]S(=O)(=O)C(F)(F)F)C(F)(F)F

>  <RECORDED_MEASUREMENT>
1171.1

$$$$
>  <COMPOUND>
CCCCn1cc[n+](C)c1.F[P-](F)(F)(F)(F)F [1-butyl-3-methylimidazolium hexafluorophosphate] + CCCC[n+]1ccn(C)c1.O=S(=O)([N-]S(=O)(=O)C(F)(F)F)C(F)(F)F

>  <RECORDED_MEASUREMENT>
1376.4

$$$$
>  <COMPOUND>
CCCCn1cc[n+](C)c1.N#C[S-] [1-butyl-3-methylimidazolium thiocyanate] + CCCC[n+]1ccn(C)c1.O=S(=O)([N-]S(=O)(=O)C(F)(F)F)C(F)(F)F

>  <RECORDED_MEASUREMENT>
1184.7

$$$$
>  <COMPOUND>
CCCCn1cc[n+](C)c1.O=S(=O)([O-])C(F)(F)F [1-butyl-3-methylimidazolium trifluoromethanesulfonate] + CCCC[n+]1ccn(C)c1.O=S(=O)([N-]S(=O)(=O)C(F)(F)F)C(F)(F)F

>  <RECORDED_MEASUREMENT>
1327

$$$$

// below: mass density requested for another compound
Query string: Dear colleague, I am looking for the recorded mass density of the following compound: CCCCn1cc[n+](C)c1.COP(=O)([O-])OC [1-butyl-3-methyl-1H-imidazolium dimethylphosphate] + CCCC[n+]1ccn(C)c1.O=S(=O)([N-]S(=O)(=O)C(F)(F)F)C(F)(F)F
Result string: 1227.7

* * *

# CONDITIONS: 298.15 K; 100 kPa; Liquid; Vibrating tube method
Measured mass density by item
The reply should contain only the number, in kg/m3.

As a guide, the following entries are already answered.
>  <MOLECULE>
CCCCn1cc[n+](C)c1.N#C[S-] [1-butyl-3-methylimidazolium thiocyanate]

>  <MEASUREMENT_LABEL>
mass density

>  <READOUT_UNIT>
kg/m3

>  <RECORDED_MEASUREMENT>
1070.2

$$$$
>  <MOLECULE>
CCCCn1cc[n+](C)c1.COP(=O)([O-])OC [1-butyl-3-methyl-1H-imidazolium dimethylphosphate]

>  <MEASUREMENT_LABEL>
mass density

>  <READOUT_UNIT>
kg/m3

>  <RECORDED_MEASUREMENT>
1157.9

$$$$

Query string: Quick check: mass density of CCCC[n+]1ccn(C)c1.O=S(=O)([N-]S(=O)(=O)C(F)(F)F)C(F)(F)F ?
Result string: 1437.2

Query string: Follow-up item: CC(=O)[O-].CCCCn1cc[n+](C)c1 [1-butyl-3-methylimidazolium acetate]
Result string: 1052.8

Query string: Could you do the same for CCCCn1cc[n+](C)c1.N#CN=C=[N-] [1-butyl-3-methylimidazolium dicyanamide] , please?
Result string: 1060.2

Query string: Would you kindly repeat that for CCCCn1cc[n+](C)c1.F[B-](F)(F)F [1-butyl-3-methylimidazolium tetrafluoroborate] ?
Result string: 1201.6

Value source: the NIST ThermoML archive (doi:10.1021/acs.jced.6b00178)
